- system: SARS-CoV 3CLpro (Severe acute respiratory syndrome coronavirus)
For each record, check the reported IC50: if it is below 20 nM write y, else write n.

Problem: Does CCC[C@H](NC(=O)C(F)(F)F)C(=O)N1C[C@@H]2CCC[C@@H]2[C@H]1C(=O)NN(C[C@@H]1CCNC1=O)C(=O)[C@H](F)Cl have IC50 strictly under 20 nM?
Solution: y

Problem: Strictly below 20 nM: is that where IC50 of CC(C)(C)[C@H](NC(=O)[C@@H]1CC1(F)F)C(=O)N1C[C@@H]2CCC[C@@H]2[C@H]1C(=O)NN(C[C@@H]1CCCNC1=O)C(=O)[C@H](F)Cl sits?
Solution: y

Problem: Given CC[C@H](C)[C@H](NC(=O)C(C)(C)C)C(=O)N1C[C@@H]2CCC[C@@H]2[C@H]1C(=O)NN(C[C@@H]1CCNC1=O)C(=O)[C@H](F)Cl , is recorded IC50 strictly lower than 20 nM?
Solution: y

Problem: Does CSCC[C@H](NC(=O)C(F)(F)F)C(=O)N1C[C@H]2[C@@H]([C@H]1C(=O)NN(C[C@@H]1CCNC1=O)C(=O)[C@H](F)Cl)C2(C)C have IC50 strictly under 20 nM?
Solution: n

Problem: Just wondering, is IC50 of CC[C@H](C)[C@H](NC(=O)C(F)F)C(=O)N1C[C@@H]2CCC[C@@H]2[C@H]1C(=O)NN(C[C@@H]1CCNC1=O)C(=O)[C@H](F)Cl below 20 nM?
Solution: y

Problem: Does the reported IC50 of CC(C)(C)[C@H](NC(=O)C12CC(C1)C2)C(=O)N1C[C@H]2[C@@H]([C@H]1C(=O)NN(C[C@@H]1CCNC1=O)C(=O)[C@H](F)Cl)C2(C)C stay below 20 nM?
Solution: n

Problem: Find out if reported IC50 for CCC(CC)[C@H](NC(=O)C1CC1)C(=O)N1C[C@H]2[C@@H]([C@H]1C(=O)NN(C[C@@H]1CCCNC1=O)C(=O)[C@H](F)Cl)C2(C)C is less than 20 nM
Solution: n

Problem: Strictly below 20 nM in IC50? CCC(CC)[C@H](NC(=O)C1CC1)C(=O)N1C[C@@H]2CCC[C@@H]2[C@H]1C(=O)NN(C[C@@H]1CCNC1=O)C(=O)[C@H](F)Cl
Solution: y

Problem: State whether 20 nM exceeds IC50 recorded for CC1(C)[C@@H]2[C@@H](C(=O)NN(C[C@@H]3CCNC3=O)C(=O)[C@H](F)Cl)N(C(=O)c3cc(F)cc(C(F)(F)F)c3)C[C@@H]21 .
Solution: n

Problem: Below 20 nM on IC50? Entry CC[C@H](C)[C@H](NC(=O)[C@H](F)Cl)C(=O)N1C[C@H]2[C@@H]([C@H]1C(=O)NN(C[C@@H]1CCNC1=O)C(=O)[C@H](F)Cl)C2(C)C
Solution: n

Problem: Field: below-cutoff. Rule: recorded IC50 strictly less than 20 nM. Subject: CC[C@H](C)[C@H](NC(=O)[C@@H](F)Cl)C(=O)N1C[C@H]2[C@@H]([C@H]1C(=O)NN(C[C@@H]1CCNC1=O)C(=O)[C@@H](F)Cl)C2(C)C
Solution: n

====

So I've got a bunch of compounds here, and I need their pIC50 values.
- system: SARS-CoV-2 3CLpro (Severe acute respiratory syndrome coronavirus 2)
- assay_protocol: biochemical
The scale used: pIC50 is minus the common logarithm of the concentration in molar units.

Problem: Item under review: CC(C)(C)[C@H](NC(=O)C1CC1)C(=O)N1C[C@H]2[C@@H]([C@H]1C(=O)NN(C[C@@H]1CCNC1=O)C(=O)[C@H](F)Cl)C2(C)C . Reported pIC50?
Solution: 7.82

Problem: Reported pIC50 for CC[C@H](C)[C@H](NC(=O)[C@@H](F)Cl)C(=O)N1C[C@H]2[C@@H]([C@H]1C(=O)NN(C[C@H]1CCCNC1=O)C(=O)[C@@H](F)Cl)C2(C)C : what is it?
Solution: 7.55

Problem: Look at this compound and give its reported pIC50. CCC(CC)[C@H](NC(=O)C1CC1)C(=O)N1C[C@H]2[C@@H]([C@H]1C(=O)NN(C[C@@H]1CCCNC1=O)C(=O)[C@H](F)Cl)C2(C)C
Solution: 7.77

Problem: Looking for the measured pIC50 of CC(C)(C)[C@H](NC(=O)C(F)F)C(=O)N1C[C@@H]2CCC[C@@H]2[C@H]1C(=O)NN(C[C@@H]1CCNC1=O)C(=O)[C@H](F)Cl , can you help?
Solution: 8.10

====

pIC50, SARS-CoV 3CLpro (Severe acute respiratory syndrome coronavirus, UniProt P0C6X7), per-entry values.
The scale used: pIC50 is minus the common logarithm of the concentration in molar units.

Problem: So what's the measured pIC50 for this one? CC1(C)[C@@H]2[C@@H](C(=O)NN(C[C@@H]3CCNC3=O)C(=O)[C@H](F)Cl)N(C(=O)[C@@H](NC(=O)C(F)(F)F)C3CC3)C[C@@H]21
Solution: 7.52

Problem: Report pIC50 for CC(C)(C)[C@H](NC(=O)C(F)(F)F)C(=O)N1C[C@H]2[C@@H]([C@H]1C(=O)NN(C[C@@H]1CCCNC1=O)C(=O)[C@H](F)Cl)C2(C)C (single isomer, unassigned) [Example 163b] please.
Solution: 7.48

Problem: Form field: reported pIC50 of CCC(C)(C)[C@H](NC(=O)C1CC1)C(=O)N1CC(C)(C)C[C@H]1C(=O)NN(C[C@H]1CCCNC1=O)C(=O)[C@H](F)Cl [Example 168b]
Solution: 6.73

Problem: For the molecule CC[C@@H](C)[C@H](NC(=O)[C@@H](C)F)C(=O)N1C[C@H]2[C@@H]([C@H]1C(=O)NN(C[C@@H]1CCNC1=O)C(=O)[C@@H](F)Cl)C2(C)C , what pIC50 is on record?
Solution: 7.21

Problem: Fill in: pIC50 of CC[C@H](C)[C@H](NC(=O)[C@@H](F)Cl)C(=O)N1C[C@H]2[C@@H]([C@H]1C(=O)NN(C[C@@H]1CCCNC1=O)C(=O)[C@@H](F)Cl)C2(C)C is ___
Solution: 8.00

Problem: Bench note: what pIC50 did CC(C)(C)[C@H](NC(=O)C(Cl)Cl)C(=O)N1C[C@@H]2CCC[C@@H]2[C@H]1C(=O)NN(C[C@@H]1CCNC1=O)C(=O)[C@H](F)Cl show?
Solution: 7.80

Problem: Any idea what pIC50 was measured for CCC(CC)[C@H](NC(=O)C1CC1)C(=O)N1C[C@@H]2CCC[C@@H]2[C@H]1C(=O)NN(C[C@@H]1CCCNC1=O)C(=O)[C@H](F)Cl [Example 171a] ?
Solution: 7.77

Problem: Given CC(C)C(=O)N[C@H](C(=O)N1C[C@@H]2CCC[C@@H]2[C@H]1C(=O)NN(C[C@@H]1CCNC1=O)C(=O)[C@H](F)Cl)C(C)(C)C , state its recorded pIC50.
Solution: 8.10

Problem: Can you look up the measured pIC50 of CCC(CC)[C@H](NC(=O)C1(F)CC1)C(=O)N1C[C@H]2[C@@H]([C@H]1C(=O)NN(C[C@@H]1CCNC1=O)C(=O)[C@@H](F)Cl)C2(C)C for me?
Solution: 7.49

Problem: If you can, please state the reported pIC50 value of CC[C@H](C)[C@H](NC(=O)C1(F)CC1)C(=O)N1C[C@H]2[C@@H]([C@H]1C(=O)NN(C[C@H]1CCCNC1=O)C(=O)[C@H](F)Cl)C2(C)C [Example 166b] .
Solution: 7.52

Problem: Which value of pIC50 has been reported for CCC(C)(C)[C@H](NC(=O)C1(F)CC1)C(=O)N1C[C@H]2[C@@H]([C@H]1C(=O)NN(C[C@@H]1CCNC1=O)C(=O)[C@@H](F)Cl)C2(C)C in the records?
Solution: 7.57

====

- system: SARS-CoV-2 3CLpro (Severe acute respiratory syndrome coronavirus 2, UniProt P0DTD1)
- assay_protocol: biochemical
metric_name: pIC50
Kindly note that pIC50 refers to -log10 of the concentration in mol/L and answer with the value alone.

Problem: Quick one: pIC50 for CC(C)(C)[C@H](NC(=O)[C@H]1CC1(F)F)C(=O)N1C[C@@H]2CCC[C@@H]2[C@H]1C(=O)NN(C[C@@H]1CCNC1=O)C(=O)[C@@H](F)Cl [Example 104] ?
Solution: 7.92

Problem: Give its pIC50 value. Item: CC[C@H](C)[C@H](NC(=O)C(F)(F)F)C(=O)N1C[C@H]2[C@@H]([C@H]1C(=O)NN(C[C@@H]1CCCNC1=O)C(=O)[C@H](F)Cl)C2(C)C (single isomer, unassigned) [Example 165a]
Solution: 7.96

Problem: Which pIC50 is listed for C[C@H](NC(=O)C(F)(F)F)C(=O)N1C[C@@H]2CCC[C@@H]2[C@H]1C(=O)NN(C[C@@H]1CCNC1=O)C(=O)[C@H](F)Cl [Example 75] ?
Solution: 7.92

Problem: Given the entry CC(C)(C)[C@H](NC(=O)C(F)(F)F)C(=O)N1C[C@H]2[C@@H]([C@H]1C(=O)NN(C[C@@H]1CCNC1=O)C(=O)[C@@H](F)Cl)C2(C)C [Example 19] , report its measured pIC50.
Solution: 7.89

meta.source: patent US20250059171A1
